B1: LINE1-mini (parent)
chain: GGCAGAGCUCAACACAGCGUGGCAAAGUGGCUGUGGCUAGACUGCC

- Variants of: B1
- assay-details: self-cleavage, relative activity (ratio to wild type); higher = more cleavage; in vitro, sequencing; the parent is a self-cleaving ribozyme
# binarize self-cleavage: threshold 0.3 inclusive, high side Yes, low side No

[
  {
    "mutant": "U20G A25C",
    "label-value": "No"
  },
  {
    "mutant": "G30U A39G",
    "label-value": "No"
  },
  {
    "mutant": "A16G U34G",
    "label-value": "No"
  },
  {
    "mutant": "C18G G19A",
    "label-value": "Yes"
  },
  {
    "mutant": "G5U C13A",
    "label-value": "No"
  },
  {
    "mutant": "G2A U28A",
    "label-value": "Yes"
  },
  {
    "mutant": "U20C G21A",
    "label-value": "Yes"
  },
  {
    "mutant": "U9A C42U",
    "label-value": "No"
  },
  {
    "mutant": "A6U G29C",
    "label-value": "Yes"
  },
  {
    "mutant": "A14U G22U",
    "label-value": "Yes"
  },
  {
    "mutant": "G17U U28G",
    "label-value": "No"
  },
  {
    "mutant": "A25G C42U",
    "label-value": "No"
  },
  {
    "mutant": "A25U G40A",
    "label-value": "No"
  },
  {
    "mutant": "G19C C46U",
    "label-value": "Yes"
  },
  {
    "mutant": "C8A U9G",
    "label-value": "No"
  },
  {
    "mutant": "C10U C18U",
    "label-value": "Yes"
  },
  {
    "mutant": "A6C G27A",
    "label-value": "Yes"
  },
  {
    "mutant": "G21U G30C",
    "label-value": "Yes"
  },
  {
    "mutant": "G21U G36U",
    "label-value": "No"
  },
  {
    "mutant": "C10U A24C",
    "label-value": "No"
  },
  {
    "mutant": "G7C G17C",
    "label-value": "No"
  },
  {
    "mutant": "A4G G44A",
    "label-value": "Yes"
  }
]
